Biological target: Adenosine receptor A2b (Homo sapiens)
Sequence (P29275 whole entry): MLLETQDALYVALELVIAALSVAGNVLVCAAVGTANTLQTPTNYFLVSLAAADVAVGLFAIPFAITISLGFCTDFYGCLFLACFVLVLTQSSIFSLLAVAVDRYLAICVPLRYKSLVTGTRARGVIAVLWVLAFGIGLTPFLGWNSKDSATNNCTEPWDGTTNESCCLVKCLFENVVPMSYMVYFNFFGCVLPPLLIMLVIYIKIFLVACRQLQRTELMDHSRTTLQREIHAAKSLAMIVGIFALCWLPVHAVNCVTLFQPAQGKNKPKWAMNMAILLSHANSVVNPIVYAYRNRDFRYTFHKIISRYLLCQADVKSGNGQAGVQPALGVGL
Experiment: Displacement of [3H]DPCPX from human Adenosine A2B receptor expressed in HEK293 cells; range 127-203
Assay type: cell-based
pKi: −log10 of the molar value.
ATTRIBUTE_MEASURED: pKi

CCCCn1cc2c(nc(NC(=O)Nc3ccc(C)cc3)n3nc(-c4ccco4)nc23)n1 | 6.79

----------
Biological target: Adenosine receptor A2b (Homo sapiens, UniProt P29275)
Sequence (P29275 whole entry): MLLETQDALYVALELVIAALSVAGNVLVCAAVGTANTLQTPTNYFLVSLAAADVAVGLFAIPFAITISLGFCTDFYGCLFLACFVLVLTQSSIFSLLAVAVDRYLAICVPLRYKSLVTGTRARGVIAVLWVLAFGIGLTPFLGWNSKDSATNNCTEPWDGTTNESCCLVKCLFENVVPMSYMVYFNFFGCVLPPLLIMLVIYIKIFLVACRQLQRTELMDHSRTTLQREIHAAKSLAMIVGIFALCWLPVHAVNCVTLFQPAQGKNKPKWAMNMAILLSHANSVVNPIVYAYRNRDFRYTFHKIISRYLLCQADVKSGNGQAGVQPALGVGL
Assay: Displacement of [3H]DPCPX from human Adenosine A2B receptor expressed in HEK293 cells; range 26-45
Assay type: cell-based
pKi: −log10 of the molar value.
ATTRIBUTE_MEASURED: pKi

CCCCn1cc2c(nc(NC(=O)Nc3ccc(Cl)c(Cl)c3)n3nc(-c4ccco4)nc23)n1 | 7.47

----------
# Lookup of reported pIC50 keyed by entry
Biological target: UniProtKB P0DMS8
Experiment: Inhibition of IB-MECA agonist-mediated cAMP production in membranes of CHO cells expressing human Adenosine A3 receptor
Type: functional, cell-based
pIC50: −log10 of the molar value.
ATTRIBUTE_MEASURED: pIC50

Cn1cc2c(nc(NC(=O)Nc3ccccc3)n3nc(-c4ccco4)nc23)n1 | 8.70
Cn1cc2c(nc(NC(=O)Nc3ccc([N+](=O)[O-])cc3)n3nc(-c4ccco4)nc23)n1 | 8.26
Cn1cc2c(nc(NC(=O)Cc3ccccc3)n3nc(-c4ccco4)nc23)n1 | 8.19

----------
Biological target: Adenosine receptor A3 (Homo sapiens)
Sequence (P0DMS8 whole entry): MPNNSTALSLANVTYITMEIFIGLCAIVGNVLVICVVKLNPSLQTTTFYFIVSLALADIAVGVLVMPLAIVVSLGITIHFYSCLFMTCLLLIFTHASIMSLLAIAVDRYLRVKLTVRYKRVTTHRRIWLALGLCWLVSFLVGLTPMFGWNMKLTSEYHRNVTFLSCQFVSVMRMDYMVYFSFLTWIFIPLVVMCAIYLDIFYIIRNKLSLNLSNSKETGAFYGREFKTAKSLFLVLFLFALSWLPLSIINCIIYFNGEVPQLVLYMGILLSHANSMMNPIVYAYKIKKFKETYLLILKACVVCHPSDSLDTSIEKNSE
Experiment: biochemical
ATTRIBUTE_MEASURED: Ki (nM)

Cc1ccc(NC(=O)Nc2nc3nn(C)cc3c3nc(-c4ccco4)nn23)cc1 | 0.31
